Target: T1, EsCas13d, nuclease-dead (Eubacterium siraeum, UniProt B0MS50, R295A;H300A;R849A;H854A)
T1 sequence: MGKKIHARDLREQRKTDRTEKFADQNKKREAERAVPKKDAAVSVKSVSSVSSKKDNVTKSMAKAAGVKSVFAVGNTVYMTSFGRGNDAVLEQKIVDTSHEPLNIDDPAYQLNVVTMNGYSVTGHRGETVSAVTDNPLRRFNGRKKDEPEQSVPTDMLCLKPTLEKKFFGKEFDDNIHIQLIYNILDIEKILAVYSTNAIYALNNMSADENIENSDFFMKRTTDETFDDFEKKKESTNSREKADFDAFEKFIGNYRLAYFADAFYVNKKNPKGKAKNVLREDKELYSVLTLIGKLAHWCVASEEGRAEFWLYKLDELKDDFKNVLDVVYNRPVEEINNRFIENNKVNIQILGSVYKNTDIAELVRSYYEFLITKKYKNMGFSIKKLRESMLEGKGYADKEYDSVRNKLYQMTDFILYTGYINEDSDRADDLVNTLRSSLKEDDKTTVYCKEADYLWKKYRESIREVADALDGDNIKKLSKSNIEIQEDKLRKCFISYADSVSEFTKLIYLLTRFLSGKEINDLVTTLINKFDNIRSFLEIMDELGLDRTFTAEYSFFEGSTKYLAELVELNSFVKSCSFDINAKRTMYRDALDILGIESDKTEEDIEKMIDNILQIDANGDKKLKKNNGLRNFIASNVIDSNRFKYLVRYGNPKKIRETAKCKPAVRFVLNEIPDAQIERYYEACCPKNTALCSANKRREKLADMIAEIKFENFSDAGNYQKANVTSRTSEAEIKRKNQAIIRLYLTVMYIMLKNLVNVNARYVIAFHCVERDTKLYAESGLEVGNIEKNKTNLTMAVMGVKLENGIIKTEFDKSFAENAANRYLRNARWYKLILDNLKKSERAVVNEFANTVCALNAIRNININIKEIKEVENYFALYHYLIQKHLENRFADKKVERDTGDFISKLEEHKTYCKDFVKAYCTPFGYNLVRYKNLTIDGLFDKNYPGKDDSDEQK
Assay: crRNA (strand 1, pre-loaded); Mg2+; 40 mM Tris-HCl pH 7.5, 150 mM NaCl, 6 mM MgCl2, 1 mM DTT, 0.1% Tween-20, 0.2 mg/ml BSA; 25 C; 10 min per concentration, then washed
Details: tags: His6-TwinStrep-SUMO cleaved; N-terminal SNAP kept (SNAP-Surface 488); label: 3' end held by stalled T7 RNA polymerase
measured.metric: Kd (nM)

1. target 1 MT 5'PFS UAG 3'PFS UAC (mixed) RNA 1: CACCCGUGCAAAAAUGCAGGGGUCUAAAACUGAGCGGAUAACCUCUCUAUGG RNA 2: GGGAAUGGAUCCACAUCUACGAAUUCUAGCCAUAGAGAGGUUAUCCGCUCAUACAGAUCGGAAGAGCACACGU    16.8
2. target 1 MT 5'PFS GGC 3'PFS AGU (mixed) RNA 1: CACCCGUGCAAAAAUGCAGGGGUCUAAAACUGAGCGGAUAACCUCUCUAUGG RNA 2: GGGAAUGGAUCCACAUCUACGAAUUCGGCCCAUAGAGAGGUUAUCCGCUCAAGUAGAUCGGAAGAGCACACGU    17.1
3. target 1 insG 3' of 9,insC 3' of 1 (mixed) RNA 1: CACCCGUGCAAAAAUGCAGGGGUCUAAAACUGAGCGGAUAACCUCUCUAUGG RNA 2: GGGAAUGGAUCCACAUCUACGAAUUCGUACCAUAGAGAGGUUAGUCCGCUCACCCGAGAUCGGAAGAGCACACGU    17.4
4. target 2 MT 5'PFS GGC 3'PFS CCA (mixed) RNA 1: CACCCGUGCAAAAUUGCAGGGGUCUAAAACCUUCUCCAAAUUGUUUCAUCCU RNA 2: GGGAAUGGAUCCACAUCUACGAAUUCGGCAGGAUGAAACAAUUUGGAGAAGCCAAGAUCGGAAGAGCACACGU    16.9
5. target 2 MT 5'PFS CGC 3'PFS AAG (mixed) RNA 1: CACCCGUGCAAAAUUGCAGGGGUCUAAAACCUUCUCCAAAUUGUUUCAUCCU RNA 2: GGGAAUGGAUCCACAUCUACGAAUUCCGCAGGAUGAAACAAUUUGGAGAAGAAGAGAUCGGAAGAGCACACGU    4
6. target 1 C7G,G13A (mixed) RNA 1: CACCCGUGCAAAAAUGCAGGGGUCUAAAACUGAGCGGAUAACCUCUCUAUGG RNA 2: GGGAAUGGAUCCACAUCUACGAAUUCGUACCAUAGAGAAGUUAUGCGCUCACCGAGAUCGGAAGAGCACACGU    15.8
7. target 2 MT 5'PFS GGG 3'PFS CUU (mixed) RNA 1: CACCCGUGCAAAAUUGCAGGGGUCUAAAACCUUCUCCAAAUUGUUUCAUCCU RNA 2: GGGAAUGGAUCCACAUCUACGAAUUCGGGAGGAUGAAACAAUUUGGAGAAGCUUAGAUCGGAAGAGCACACGU    14.2
8. target 3 U2G (mixed) RNA 1: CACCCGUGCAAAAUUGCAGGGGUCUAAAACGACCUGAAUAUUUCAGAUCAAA RNA 2: GGGAAUGGAUCCACAUCUACGAAUUCGUUUUUGAUCUGAAAUAUUCAGGGCUGCAGAUCGGAAGAGCACACGU    26.5
9. target 3 insG 3' of 22,insG 3' of 22 (mixed) RNA 1: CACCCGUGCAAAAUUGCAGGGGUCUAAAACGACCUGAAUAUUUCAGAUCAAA RNA 2: GGGAAUGGAUCCACAUCUACGAAUUCGUUUGGUUGAUCUGAAAUAUUCAGGUCUGCAGAUCGGAAGAGCACACGU    64.5
10. target 1 insG 3' of 11,insC 3' of 8 (mixed) RNA 1: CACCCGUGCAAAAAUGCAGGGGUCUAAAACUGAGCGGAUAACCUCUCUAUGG RNA 2: GGGAAUGGAUCCACAUCUACGAAUUCGUACCAUAGAGAGGUGUAUCCCGCUCACCGAGAUCGGAAGAGCACACGU    39
11. target 1 insC 3' of 5,insG 3' of 2 (mixed) RNA 1: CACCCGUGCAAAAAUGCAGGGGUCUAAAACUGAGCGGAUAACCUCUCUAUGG RNA 2: GGGAAUGGAUCCACAUCUACGAAUUCGUACCAUAGAGAGGUUAUCCGCCUCGACCGAGAUCGGAAGAGCACACGU    10
12. target 3 insU 3' of 6,insG 3' of 6 (mixed) RNA 1: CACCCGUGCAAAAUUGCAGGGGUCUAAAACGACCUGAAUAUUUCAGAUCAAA RNA 2: GGGAAUGGAUCCACAUCUACGAAUUCGUUUUUGAUCUGAAAUAUUCUGAGGUCUGCAGAUCGGAAGAGCACACGU    8.7
13. target 2 MT 5'PFS GGG 3'PFS UUC (mixed) RNA 1: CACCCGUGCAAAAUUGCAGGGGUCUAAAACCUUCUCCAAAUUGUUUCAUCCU RNA 2: GGGAAUGGAUCCACAUCUACGAAUUCGGGAGGAUGAAACAAUUUGGAGAAGUUCAGAUCGGAAGAGCACACGU    42
14. target 1 MT 5'PFS ACG 3'PFS UAA (mixed) RNA 1: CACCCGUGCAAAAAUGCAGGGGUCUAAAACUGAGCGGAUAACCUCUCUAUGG RNA 2: GGGAAUGGAUCCACAUCUACGAAUUCACGCCAUAGAGAGGUUAUCCGCUCAUAAAGAUCGGAAGAGCACACGU    13.5
15. target 3 G3U,A12G (mixed) RNA 1: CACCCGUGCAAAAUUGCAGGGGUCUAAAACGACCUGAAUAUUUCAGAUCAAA RNA 2: GGGAAUGGAUCCACAUCUACGAAUUCGUUUUUGAUCUGAGAUAUUCAGUUCUGCAGAUCGGAAGAGCACACGU    86
